system: Plasmodium falciparum; test: GSK_TCMDC: Inhibition of Plasmodium falciparum Dd2 in whole red blood cells, using parasite LDH activity as an index of growth. Test compounds present at 2uM; type: functional
endpoint.name: Inhibition (%)

molecule: COc1ccc2ncc(OC)c(CCN3CC[C@@H](NCc4ccc5c(n4)NC(=O)CS5)[C@H](O)C3)c2n1
endpoint.name: Inhibition
result: 99
--
molecule: O=C(Nc1cccc(F)c1)NC1CCN(c2ccnc3cc(Cl)ccc23)C1.O=C(O)C(F)(F)F (stereo unspecified)
endpoint.name: Inhibition
result: 64
--
molecule: O=C(NCc1ccc(Cl)c(Cl)c1)c1cccc(C2CCCN(Cc3ccc4[nH]cnc4c3)C2)c1 (stereo unspecified)
endpoint.name: Inhibition
result: 30
--
molecule: COc1ccc(C=NN=c2c3ccccc3[nH]c3ccccc23)c2ccccc12
endpoint.name: Inhibition
result: 23
--
molecule: Cc1cnc(N)c(/C=C/c2cncc(C(=O)NCCc3ccc(Cl)cc3Cl)c2)c1.Cl
endpoint.name: Inhibition
result: 100
--
molecule: COc1ccc(-c2cccc(NC(=O)c3cccc(C#N)c3)c2)cc1CN1CCCN(C)CC1.O=C(O)C(F)(F)F
endpoint.name: Inhibition
result: 99
--
molecule: CCC(C)CC(=O)Nc1ccc(OC)c(S(=O)(=O)N[C@@H]2CCN(C#N)C2)c1 (stereo partly specified)
endpoint.name: Inhibition
result: 77
--
molecule: CCn1ccc2c(N3CCCS3(=O)=O)cc(C(=O)N[C@@H](Cc3ccccc3)[C@H](O)CNC3CCCCC3)cc21
endpoint.name: Inhibition
result: 98
--
molecule: Cc1cc(=NN=Cc2ccccn2)c2cc(C(F)(F)F)ccc2[nH]1
endpoint.name: Inhibition
result: 100
--
molecule: C=CCOC(=O)N1CCC(CNCc2ccc(-c3cccc(-c4nc5cc(F)ccc5[nH]4)c3)cc2)C1.O=C(O)C(F)(F)F (stereo unspecified)
endpoint.name: Inhibition
result: 99
--
molecule: O=C(c1cccc(-c2ccc(-c3nc4cc(C(F)(F)F)ccc4[nH]3)cc2)c1)N1CCCCC1CN1CCC(O)C1 (stereo unspecified)
endpoint.name: Inhibition
result: 100

###

tested on: HepG2; test: GSK_TCMDC: Percent inhibition of human HepG2 cell line. Test compounds present at 10uM.; assay type: functional
param class (str): category from Inhibition; see ranges low range = under 10%, mid range = from 10% up to 50%, high range = 50% and over

compound: NC1CCN(Cc2ccc(-c3cccc(-c4nc5cc(F)ccc5[nH]4)c3)cc2)C1.O=C(O)C(F)(F)F (stereo unspecified)
label.class: mid range
--
compound: COc1ccc2ncc(F)c(CCN3CC4CCCC4(CNCc4ccc5c(n4)NC(=O)CS5)C3)c2n1.Cl (stereo unspecified)
label.class: mid range
--
compound: O=C(NCCCCCN1CCC(c2c[nH]c3ccccc23)CC1)Nc1cccc(I)c1
label.class: high range
--
compound: COc1ccccc1NC(=O)CSc1nc2cccnc2n1-c1ccccc1OC
label.class: low range
--
compound: O=[N+]([O-])c1ccccc1/C=N/Nc1ccnc2ccc(C(F)(F)F)cc12
label.class: low range
--
compound: Cc1cccc2nc(-c3cccc(-c4cccc(NC(=O)C5CC(=O)Nc6ccccc65)c4)c3)[nH]c12 (stereo unspecified)
label.class: mid range
--
compound: CC(C)c1ccc2oc(-c3ccc(NC(=O)c4ccc([N+](=O)[O-])o4)cc3)nc2c1
label.class: high range
--
compound: Cc1ccc2cc(NC(=O)c3cccc(C(=O)Nc4ccc5nc(C)ccc5c4)n3)ccc2n1
label.class: mid range
--
compound: COc1ccc(-c2nc3c(N)nc(N)nc3nc2-c2ccccc2Cl)cc1.COc1ccc(-c2nc3nc(N)nc(N)c3nc2-c2ccccc2Cl)cc1.Cl
label.class: mid range
--
compound: N=C(N)c1ccc(Nc2nccc(Nc3nc(-c4ccccc4)cs3)n2)cc1.O=C(O)C(F)(F)F
label.class: mid range

###

Readings of Inhibition for the listed compounds
test system: Plasmodium falciparum; experiment: GSK_TCMDC: Inhibition of Plasmodium falciparum 3D7 in whole red blood cells, using parasite LDH activity as an index of growth. Test compounds present at 2uM; type: functional

compound: O=C(NCCN1CCCC1)c1cccc(-c2ccc(-c3nc4cc(F)ccc4[nH]3)s2)c1
Inhibition / %: 100

compound: O=C(O[C@@H]1CN[C@H](C#Cc2cc3ncnc(Nc4ccc5c(cnn5Cc5cccc(F)c5)c4)c3s2)C1)N1CCCC1
Inhibition / %: 86

compound: CCCCCCN1CCC(NCc2ccc(C(F)(F)F)cc2)CC1.O=C(O)C(F)(F)F
Inhibition / %: 100

compound: COc1cc(OC)cc(-c2nnc(Sc3ccc(C#N)c([N+](=O)[O-])c3)n2C)c1
Inhibition / %: 95

compound: O=C(O)/C=C/c1cccc(F)c1F
Inhibition / %: 96

compound: CN(C)CC(=O)NCC(NCCCNc1cc(=O)c2ccccc2[nH]1)c1cc(Br)cc(Br)c1 (stereo not given)
Inhibition / %: 98

compound: COc1cc2nc(-c3ccc(Br)cc3)cc(N)c2cc1OC
Inhibition / %: 98

compound: CCn1ccc2c(N3CCCCS3(=O)=O)cc(C(=O)N[C@@H](Cc3ccccc3)[C@H](O)CNC3CCCCC3)cc21
Inhibition / %: 98

compound: CC(C)S(=O)(=O)N1CCN(Cc2ccc3c(c2)nc(NC(=O)c2ccsc2)n3C[C@H](O)c2ccccc2)CC1
Inhibition / %: 91

compound: COc1cc(Cc2cnc(N)nc2N)cc(OCc2cccc(C(=O)O)c2)c1OC.Cl
Inhibition / %: 92

###

system: Plasmodium falciparum; experiment: GSK_TCMDC: Inhibition of Plasmodium falciparum Dd2 in whole red blood cells, using parasite LDH activity as an index of growth. Test compounds present at 2uM; format: functional
hey, just use true (1) if measured Inhibition is less than 40%, otherwise false (0)

molecular.string: CNC(=O)c1cnc(Nc2ccc3[nH]c(=O)[nH]c3c2)nc1Nc1cccc(OC(C)C)c1.O=C(O)C(F)(F)F
system.under.test: Plasmodium falciparum
label.class: false (0)
--
molecular.string: CN(C)CCNc1ncnc2c1[nH]c1ccc(Cl)cc12
system.under.test: Plasmodium falciparum
label.class: true (1)
--
molecular.string: COc1cccc2c(N/N=C/c3ccccc3[N+](=O)[O-])ccnc12
system.under.test: Plasmodium falciparum
label.class: false (0)
--
molecular.string: CCC(=O)Nc1nnc(Cc2ccc(OC)c(OC)c2)s1
system.under.test: Plasmodium falciparum
label.class: true (1)
--
molecular.string: O=C(Nc1cccc(CN2CCCN(Cc3ncc[nH]3)CC2)c1)c1ccc(-c2ccccc2)cc1.O=C(O)C(F)(F)F
system.under.test: Plasmodium falciparum
label.class: false (0)
--
molecular.string: Cc1nc(C)c(-c2ccc(S(=O)(=O)c3ccc(Cl)cc3)cc2)c(O)c1Br
system.under.test: Plasmodium falciparum
label.class: false (0)

###

test system: Plasmodium falciparum; experiment: GSK_TCMDC: Inhibition of Plasmodium falciparum 3D7 in whole red blood cells, using parasite LDH activity as an index of growth. Test compounds present at 2uM; format: functional
endpoint.name: Inhibition (%)

compound: OC(c1ccc2ccccc2c1)C1CN(CCc2ccccc2)CCC1(O)c1ccccc1 (stereo not given)
system.under.test: Plasmodium falciparum
unit: %
result: 99
--
compound: COc1ccc(-c2ncnc(C(F)(F)F)c2-c2ccc(Cl)cc2)c(O)c1
system.under.test: Plasmodium falciparum
unit: %
result: 100
--
compound: Cc1cc(-c2cccc(CNC3CCN(C)CC3)c2)ccc1S(=O)(=O)NCCN1CCCC1.O=C(O)C(F)(F)F
system.under.test: Plasmodium falciparum
unit: %
result: 100
--
compound: O=C(Cc1ccc[n+]([O-])c1)Nc1cccc(-c2cccc(-c3nc4cc(C(F)(F)F)ccc4[nH]3)c2)c1
system.under.test: Plasmodium falciparum
unit: %
result: 92
--
compound: Nc1cccc(CNCc2cccc(-c3ccc(-c4nc5ccccc5[nH]4)s3)c2)c1.O=C(O)C(F)(F)F
system.under.test: Plasmodium falciparum
unit: %
result: 100
--
compound: CC(C)CCCC(C)(C)NC[C@@H](O)[C@H](Cc1ccccc1)NC(=O)c1cc(NC(C)C)cc(N2CCCCS2(=O)=O)c1F.O=CO
system.under.test: Plasmodium falciparum
unit: %
result: 98
--
compound: O=C(CNC(=O)c1ccc(O)cc1)Nc1ccc(-c2cccc(-c3nc4cc(C(F)(F)F)ccc4[nH]3)c2)cc1
system.under.test: Plasmodium falciparum
unit: %
result: 92
--
compound: COc1ccc(-c2ccc(NC(=O)c3cccc(Cl)c3)cc2)cc1CN1CCCC1.O=C(O)C(F)(F)F
system.under.test: Plasmodium falciparum
unit: %
result: 100
--
compound: Nc1cccc(CNCc2cccc(-c3ccc(-c4nc5cc(C(F)(F)F)ccc5[nH]4)cc3)c2)c1.O=C(O)C(F)(F)F
system.under.test: Plasmodium falciparum
unit: %
result: 100
--
compound: Cl.c1ccc(Oc2ccc(Nc3ccnc4cc(-c5ccc(CN6CCNCC6)o5)ccc34)cc2)nc1
system.under.test: Plasmodium falciparum
unit: %
result: 100
--
compound: CC(c1cccc(Nc2nccc(-c3c(-c4cccc(NC(=O)c5c(F)cccc5F)c4)nn4ncccc34)n2)c1)S(C)(=O)=O (stereo not given)
system.under.test: Plasmodium falciparum
unit: %
result: 98
--
compound: COc1ccccc1C1CN(Cc2coc3ccccc3c2=O)Cc2ccccc2O1 (stereo not given)
system.under.test: Plasmodium falciparum
unit: %
result: 87
--
compound: O=c1ccc2ccc(F)cc2n1CCN1CCC(NCc2ccc(-c3ccccn3)s2)CC1
system.under.test: Plasmodium falciparum
unit: %
result: 98
--
compound: Br.CCCCc1ccc(CCNCCCCCCNCCc2ccc(O)c(O)c2)cc1
system.under.test: Plasmodium falciparum
unit: %
result: 100
--
compound: Cl.Oc1ccc(Nc2nc(N3CCCC3)c3ccccc3n2)cc1
system.under.test: Plasmodium falciparum
unit: %
result: 100
